Reference for the values: the Human Domainome abundance scans (Beltran et al. 2025)

B1: REST corepressor 3, residues 87 to 134; numbered along this chain, Q9P2K3 (parent)
chain: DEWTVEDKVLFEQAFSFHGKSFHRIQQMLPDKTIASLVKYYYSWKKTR

# Variants of: B1
# assay_notes: abundance fitness (aPCA) (normalised: wild type 0, dead -1); higher = more abundant; growth selection in yeast, the domain comes from the species named
# details: Homo sapiens
Response field class: string, computed from recorded abundance fitness by ranges L: < -0.6; M: ≥ -0.6 and < -0.3; H: ≥ -0.3

I25K: M

Textbook exercise: identify the category of the variant given here, "A14L" , according to its measured value.
M

Proceed to "T33C"
L

Proceed to "K32L"
L

Proceed to "F22V"
L

Proceed to "V38Q"
M

Proceed to "P30G"
L
